- Test system: Trichophyton rubrum
- method: checkerboard drug interaction (FICI, MICc);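 also: simplified diagonal checkerboard screen pairing azole antifungals with FPPS inhibitors, FICI calculated under the Loewe additivity model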
- Assay type: cell-based
- experimental.context: T. rubrum; MIC-MICc fold decrease of the inhibitor, with ketoconazole
readout: INH FD (KET:INH)

Sample answers from the record:
                                   molecule           readout  observed_value
0  CCCCCCCCCCN1CCC[C@H]1C(=O)N[C@H](CC(=O)OC)C(=O)OC  INH FD (KET:INH)            < -4
1  O=P(O)(O)C(O)(Cn1ccnc1)P(=O)(O)O [ZOL, zoledronate]  INH FD (KET:INH)               8

Count: 5. Required value per item: INH FD (KET:INH).
1. CCCCCCCCCCCN1CCC[C@H]1C(=O)N[C@H](CC(=O)OC)C(=O)OC
2. CCCCCCCCCCCCN1CCC[C@H]1C(=O)N[C@H](CC(=O)OC)C(=O)OC
3. CCCCCCCCCCCCN1CCC[C@H]1C(=O)N[C@H](CC(=O)O)C(=O)O
4. CCCCCCCCCCCCN1CCC[C@H]1C(=O)N[C@@H](CC(=O)OC)C(=O)OC
5. CCCCCCCCCN1CCC[C@H]1C(=O)N[C@@H](CC(=O)OC)C(=O)OC

Completion:
1. < -4
2. -4
3. -2
4. 1
5. 1

Dear reader, for each entry below, please note its INH FD (KET:INH).
1. CCCCCCCCCCCN1CCC[C@H]1C(=O)N[C@@H](CC(=O)OC)C(=O)OC
2. CCCCCCCCCN1CCC[C@H]1C(=O)N[C@@H](CC(=O)O)C(=O)O

Completion:
1: -2; 2: 2

###

- Test system: Aspergillus fumigatus
- method: checkerboard drug interaction (FICI, MICc)
- Format: cell-based
- experimental.context: Fractional Inhibitory Concentration Index, itraconazole + inhibitor
Answer each item with its documented FICI (ITR:INH).
Give bare numbers.

Would you please look over these solved cases?
>>> print(df.to_string())
                                item_smiles                 target  observed_value
0  CCCCCCCCCCN1CCC[C@H]1C(=O)N[C@H](CC(=O)OC)C(=O)OC  Aspergillus fumigatus            0.63
1  CCCCCCCCCN1CCC[C@H]1C(=O)N[C@H](CC(=O)O)C(=O)O  Aspergillus fumigatus            0.25
2  CCCCCCCCCCCCN1CCC[C@H]1C(=O)N[C@H](CC(=O)OC)C(=O)OC  Aspergillus fumigatus            0.26
3  CCCCCCCCCCCN1CCC[C@H]1C(=O)N[C@H](CC(=O)OC)C(=O)OC  Aspergillus fumigatus            0.53
4  CCCCCCCCCN1CCC[C@H]1C(=O)N[C@H](CC(=O)OC)C(=O)OC  Aspergillus fumigatus            0.52

Would you mind listing FICI (ITR:INH) for each of the following molecules?
1. CCCCCCCCCCCCN1CCC[C@H]1C(=O)N[C@H](CC(=O)O)C(=O)O
2. CCCCCCCCCCCN1CCC[C@H]1C(=O)N[C@H](CC(=O)O)C(=O)O
3. CCCCCCCCCCCCN1CCC[C@H]1C(=O)N[C@@H](CC(=O)OC)C(=O)OC

Completion:
0.51
0.51
0.52

Prompt: Observed FICI (ITR:INH) on Aspergillus fumigatus for "CCCCCCCCCCCN1CCC[C@H]1C(=O)N[C@@H](CC(=O)OC)C(=O)OC" , please.
Completion: 0.53

###

- Test system: Cryptococcus neoformans
- method: checkerboard drug interaction (FICI, MICc)
- Assay type: cell-based
- experimental.context: C. neoformans; FLC:INH combination
Assignment: determine reported FICI for the given molecules.
Answers are plain numbers.

                                   molecule  observed_value
0  CCCCCCCCCCCN1CCC[C@H]1C(=O)N[C@H](CC(=O)OC)C(=O)OC             1.5
1  CCCCCCCCCCN1CCC[C@H]1C(=O)N[C@@H](CC(=O)OC)C(=O)OC            0.75
2  CCCCCCCCCCCN1CCC[C@H]1C(=O)N[C@@H](CC(=O)OC)C(=O)OC             1.5

I would be grateful if you could provide FICI for each of the following entries.
1. CCCCCCCCCCCCN1CCC[C@H]1C(=O)N[C@H](CC(=O)OC)C(=O)OC
2. CCCCCCCCCCN1CCC[C@H]1C(=O)N[C@H](CC(=O)OC)C(=O)OC
3. CCCCCCCCCN1CCC[C@H]1C(=O)N[C@H](CC(=O)OC)C(=O)OC
4. CCCCCCCCCCCCN1CCC[C@H]1C(=O)N[C@@H](CC(=O)OC)C(=O)OC
5. O=P(O)(O)C(O)(Cn1ccnc1)P(=O)(O)O [ZOL, zoledronate]

Completion:
1.25
0.75
1.25
3
0.38

###

- Tested on: Candida albicans biofilms
- method: biofilm XTT reduction assay (SIC80, SFICI)
- experimental.context: agent alone, Candida albicans SC5314
readout: SIC80 (µg/mL)
Numbers only, in µg/mL.

                                   compound  readout  observed_value
0        OC(Cn1cncn1)(Cn1cncn1)c1ccc(F)cc1F    SIC80             512
1  CCCCCCCCCCn1cc[n+](CC(O)(P(=O)(O)O)P(=O)(O)O)c1 [10-ZOL, Decyl-zoledronate]    SIC80             128
2  CC(=O)N1CCN(c2ccc(OCC3COC(Cn4ccnc4)(c4ccc(Cl)cc4Cl)O3)cc2)CC1 (stereo not shown)    SIC80              64

# ---- query compound ----
Prompt: Reported SIC80, compound CCC(C)n1ncn(-c2ccc(N3CCN(c4ccc(OCC5COC(Cn6cncn6)(c6ccc(Cl)cc6Cl)O5)cc4)CC3)cc2)c1=O (stereo not shown) : ____
Completion: 256

###

Quick record: MIC, Saccharomyces cerevisiae.
Numbers only, in µg/mL.

Record MIC for all entries; do not skip any.
1. CCCCCCCCCCCCN1CCC[C@H]1C(=O)N[C@H](CC(=O)OC)C(=O)OC
2. CCCCCCCCCCN1CCC[C@H]1C(=O)N[C@H](CC(=O)OC)C(=O)OC
3. CCCCCCCCCCN1CCC[C@H]1C(=O)N[C@@H](CC(=O)OC)C(=O)OC
4. CCCCCCCCCCCN1CCC[C@H]1C(=O)N[C@H](CC(=O)OC)C(=O)OC
5. CCCCCCCCCN1CCC[C@H]1C(=O)N[C@H](CC(=O)OC)C(=O)OC
6. CCCCCCCCCCn1cc[n+](CC(O)(P(=O)(O)O)P(=O)(O)O)c1 [10-ZOL, Decyl-zoledronate]

Completion:
1. 64
2. 16
3. 8
4. 64
5. 64
6. 1

###

- Tested on: Saccharomyces cerevisiae
- method: checkerboard drug interaction (FICI, MICc)
- Format: cell-based
- Set-up: unit not given beside the values
- experimental.context: MIC of the inhibitor in combination with fluconazole
Exercise: for every item that follows, state its recorded INH MICc (FLC:INH).
Numbers only.

Known INH MICc (FLC:INH) results, listed for orientation:
>>> print(df.to_string())
                                item_smiles  observed_value
0  CCCCCCCCCCCCN1CCC[C@H]1C(=O)N[C@H](CC(=O)O)C(=O)O              64
1  CCCCCCCCCCCN1CCC[C@H]1C(=O)N[C@H](CC(=O)OC)C(=O)OC             256

Working through the 3 compounds below one at a time, give INH MICc (FLC:INH) for each.
1. CCCCCCCCCCCCN1CCC[C@H]1C(=O)N[C@H](CC(=O)OC)C(=O)OC
2. CCCCCCCCCN1CCC[C@H]1C(=O)N[C@H](CC(=O)OC)C(=O)OC
3. CCCCCCCCCN1CCC[C@H]1C(=O)N[C@H](CC(=O)O)C(=O)O

Completion:
1. 32
2. 64
3. 64

###

- Tested on: Aspergillus fumigatus
- method: checkerboard drug interaction (FICI, MICc)
- Format: cell-based
- experimental.context: A. fumigatus; KET:INH combination; fold decrease of inhibitor MIC
readout: INH FD (MIC-MICc fold decrease)

Examples with answers:
>>> df
                                   compound                          readout  observed_value
0  CCCCCCCCCN1CCC[C@H]1C(=O)N[C@@H](CC(=O)OC)C(=O)OC  INH FD (MIC-MICc fold decrease)               1
1  CCCCCCCCCCN1CCC[C@H]1C(=O)N[C@@H](CC(=O)OC)C(=O)OC  INH FD (MIC-MICc fold decrease)              -2
2  CCCCCCCCCCCN1CCC[C@H]1C(=O)N[C@@H](CC(=O)O)C(=O)O  INH FD (MIC-MICc fold decrease)               2
3  O=P(O)(O)C(O)(Cn1ccnc1)P(=O)(O)O [ZOL, zoledronate]  INH FD (MIC-MICc fold decrease)               4

Prompt: INH FD (MIC-MICc fold decrease) lookup needed for "CCCCCCCCCN1CCC[C@H]1C(=O)N[C@@H](CC(=O)O)C(=O)O" , thanks.
Completion: 2

// data source = paper PMC12892976
